Tested on: SEM cells
Experiment: cell viability relative to DMSO control; higher = less cytotoxic
Settings: RPMI 5 mM glucose + 10% FBS; 48 h; 15.4 µM
observation_type: cell viability (%)
One number for each entry, in %.

These solved cases illustrate the format of a correct answer.
[
  {
    "compound": "Cn1c(=O)c2[nH]cnc2n(C)c1=O",
    "u": "%",
    "cell viability": 99
  },
  {
    "compound": "CCCCCCCCOc1ccccc1C(=O)Nc1ccc(C(=O)OCC[N+](C)(CC)CC)cc1",
    "u": "%",
    "cell viability": 93.5
  },
  {
    "compound": "NCCCC(O)(P(=O)(O)O)P(=O)(O)O.O.O.O.[Na+]",
    "u": "%",
    "cell viability": 16.6
  },
  {
    "compound": "CC1=CC=C2\\N=C/3N(CC[C@@]3(O)C(=O)C2=C1)C4=CC=CC=C4",
    "u": "%",
    "cell viability": 117
  }
]

Attention now turns to another entry.
Item OC(CCN1CCCCC1)(C2CC\3CC2\C=C3)C4=CC=CC=C4 (stereo not given) has what recorded cell viability?
134

----------
System: P12-Ichikawa
Assay: cell viability relative to DMSO control; higher = less cytotoxic
Details: HPLM + 10% dialyzed FBS; 48 h; 0.0632 µM
Kindly supply the reported cell viability values for the records listed here.

These solved cases illustrate the format of a correct answer.
[
  {
    "compound": "O=[S+]([O-])(O)c1ccc2cc(/N=N/c3cc([S+](=O)([O-])O)c4cccnc4c3O)ccc2c1",
    "observation_type": "cell viability",
    "result": "126%"
  },
  {
    "compound": "C[C@H]1C[C@H]2[C@@H]3CCC4=CC(=O)C=C[C@]4(C)[C@H]3C(=O)C[C@]2(C)[C@@]1(O)C(=O)CO",
    "observation_type": "cell viability",
    "result": "88%"
  },
  {
    "compound": "CO[C@H]1/C=C/O[C@@]2(C)Oc3c(C)c(O)c4c(O)c(c(/C=N/N5CCN(C)CC5)c(O)c4c3C2=O)NC(=O)/C(C)=C\\C=C\\[C@H](C)[C@H](O)[C@@H](C)[C@@H](O)[C@@H](C)[C@H](OC(C)=O)[C@@H]1C",
    "observation_type": "cell viability",
    "result": "127%"
  },
  {
    "compound": "COc1ccc(CC2c3cc(OC)c(OC)cc3CC[N+]2(C)CCC(=O)OCCCCCOC(=O)CC[N+]2(C)CCc3cc(OC)c(OC)cc3C2Cc2ccc(OC)c(OC)c2)cc1OC (stereo not given)",
    "observation_type": "cell viability",
    "result": "90.5%"
  }
]

Attention now turns to another entry.
Item Clc1ccccc1C(c1ccccc1)(c1ccccc1)n1cccn1 has what recorded cell viability?
125%

----------
Test system: P12-Ichikawa
Assay: cell viability relative to DMSO control; higher = less cytotoxic
Conditions: RPMI 5 mM glucose + 10% FBS; 48 h; 0.0211 µM
observation_type: cell viability (%)
Give bare numbers, in %.

For each of the compounds below, note its cell viability.
1. COc1cc(Nc2ncc(F)c(Nc3ccc4c(n3)N(COP(=O)(O)O)C(=O)C(C)(C)O4)n2)cc(OC)c1OC
2. CCNC(=O)Nc1ccc(-c2nc3c(c(N4CCOC[C@@H]4C)n2)CCN(C2COC2)C3)cc1
3. CNC(=O)c1ccc(N2C(=S)N(c3ccc(C#N)c(C(F)(F)F)c3)C(=O)C2(C)C)cc1F

1: 100; 2: 116; 3: 109

For each of the compounds below, note its cell viability.
1. CO[C@H]1/C=C/O[C@@]2(C)Oc3c(C)c(O)c4c(O)c(c(/C=N/N5CCN(C)CC5)c(O)c4c3C2=O)NC(=O)/C(C)=C\C=C\[C@H](C)[C@H](O)[C@@H](C)[C@@H](O)[C@@H](C)[C@H](OC(C)=O)[C@@H]1C
2. COc1ccc(C(=O)CC(=O)c2ccc(C(C)(C)C)cc2)cc1
3. O=C([O-])[C@H](CC(=O)N1C[C@H]2CCCC[C@H]2C1)Cc1ccccc1
4. COc1ccc(CC2c3cc(OC)c(OC)cc3CC[N+]2(C)CCC(=O)OCCCCCOC(=O)CC[N+]2(C)CCc3cc(OC)c(OC)cc3C2Cc2ccc(OC)c(OC)c2)cc1OC (stereo not drawn)
5. CCOC(CN1C(=O)[C@](CC(=O)Nc2ccc(C)cc2)(NC(=O)Nc2ccc(C)cc2)c2ccccc21)OCC

118
106
129
92.1
108
